tgt: Pax5(1-149) Q22A;GABPα(311-430);GABPβ1(1-157) (human;;, UniProt Q02548;Q00422;Q00420 1-149;311-430;1-157, Q22A||)
Sequence (Q02548 1-149 Q22A, chain 1 of 3): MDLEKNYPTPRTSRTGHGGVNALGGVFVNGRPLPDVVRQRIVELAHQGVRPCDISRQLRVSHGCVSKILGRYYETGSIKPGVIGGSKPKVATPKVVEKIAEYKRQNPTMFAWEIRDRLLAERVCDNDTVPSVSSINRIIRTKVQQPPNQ
Sequence (Q00422 311-430, chain 2 of 3): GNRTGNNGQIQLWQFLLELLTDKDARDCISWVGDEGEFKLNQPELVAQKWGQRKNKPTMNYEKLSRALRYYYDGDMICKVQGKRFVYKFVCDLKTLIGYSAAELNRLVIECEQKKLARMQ
Sequence (Q00420 1-157, chain 3 of 3): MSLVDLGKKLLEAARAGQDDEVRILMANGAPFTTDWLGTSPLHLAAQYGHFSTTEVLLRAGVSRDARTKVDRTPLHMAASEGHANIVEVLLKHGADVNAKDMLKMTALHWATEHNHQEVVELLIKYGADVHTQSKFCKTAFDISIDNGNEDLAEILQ
test details: EMSA
assay readout: pKd
Numbers only, as −log10 of the molar value.

P5-EBS probe (dsDNA) DNA 1: TCGAAGGGCCACTGGAGCCCATCTCCGGCACGGC DNA 2: TCGAGCCGTGCCGGAGATGGGCTCCAGTGGCCCT has a reported pKd of 8.47
